Where do the numbers come from? From ChEMBL document CHEMBL4017462.

- Tested on: Plasmodium falciparum
- assay: Antiplasmodial activity against chloroquine-sensitive Plasmodium falciparum 3D7
- Type: functional
Listed below: IC50 values for each entry.
Value expressed in nM; do not type the unit.

Before answering, review these 2 worked examples.
>>> recorded_number("Cc1c(O)c(C(=O)CCc2ccccc2)c2c(c1O)[C@@H]1C3=C(O[C@]1(C(C)C)O2)C(C)(C)C(=O)C(C)(C)C3=O")
290
>>> recorded_number("CC(C)CC(C1=C(O)C(C)(C)C(=O)C(C)(C)C1=O)C1=C(O)C(C)(C)C(=O)C(C)(C)C1=O")
5300

Now consider a different compound.
Measured IC50, `CC(C)CC(=O)c1c(O)c2c(c3c1O[C@]1(C(C)C)OC4=C(C(=O)C(C)(C)C(=O)C4(C)C)[C@H]31)OC1=C(C(=O)C(C)(C)C(=O)C1(C)C)[C@@H]2CC(C)C` : 1000

###

- assay: Growth inhibition of HEK293 cells at 100 uM relative to control
- Type: cell-based
- assay_conditions: human, read-out: GI
measurement_name: inhibition at 100 µM (%)
Value expressed in %; do not type the unit.

Measured inhibition at 100 µM, `CC(C)CC(=O)c1c(O)cc(O)c2c1O[C@@]1(C(C)C)OC3=C(C(=O)C(C)(C)C(=O)C3(C)C)[C@@H]21` : 59

Measured inhibition at 100 µM, `CC(C)C[C@H]1C2=C(O[C@@]3(C)C=C4[C@@H](C[C@@H]13)[C@@H](C)CC[C@@H]4C(C)C)C(C)(C)C(=O)C(C)(C)C2=O` : 68

###

- assay: Growth inhibition of HEK293 cells at 40 uM relative to control
- Type: cell-based
- assay_conditions: human, read-out: GI
measurement_name: inhibition at 40 µM (%)
Value expressed in %; do not type the unit.

Measured inhibition at 40 µM, `CCc1nc(N)nc(N)c1-c1ccc(Cl)cc1` : 62

###

Listed below: selectivity ratio values for each entry.
- assay: Selectivity index, ratio of IC50 for HEK293 cells to IC50 for chloroquine-resistant Plasmodium falciparum Dd2
- Format: toxicity
- assay_conditions: human; read-out: Ratio IC50

>>> result("CC(C)C[C@@H]1OC12C(=O)C(C)(C)C(=O)C(C)(C)C2=O")
"< 10"

Measured selectivity ratio, `CC(C)CC(=O)c1c(O)cc2c(c1O)[C@@H](CC(C)C)C1=C(O2)C(C)(C)C(=O)C(C)(C)C1=O` : < 10

###

- System: Plasmodium falciparum
- assay: Antiplasmodial activity against chloroquine-resistant Plasmodium falciparum Dd2 measured after 72 hrs by DAPI staining based high throughput screening assay
- Format: functional
- assay_conditions: Dd2, 72 h
measurement_name: IC50 (µM)
Value expressed in µM; do not type the unit.

Before answering, review these 3 worked examples.
>>> recorded_number("COc1ccc(C[C@H](N)C(=O)N[C@H]2[C@@H](O)[C@H](n3cnc4c(N(C)C)ncnc43)O[C@@H]2CO)cc1 [PUROMYCIN]")
0.061
>>> recorded_number("COc1ccc2nc3cc(Cl)ccc3c(Nc3cc(CN4CCCC4)c(O)c(CN4CCCC4)c3)c2n1 [PYRONARIDINE]")
0.018
>>> recorded_number("CC(C)CC(=O)c1c(O)cc2c(c1O)[C@@H](CC(C)C)C1=C(O2)C(C)(C)C(=O)C(C)(C)C1=O")
4

Now consider a different molecule.
Measured IC50, `CC(C)C[C@@H]1OC12C(=O)C(C)(C)C(=O)C(C)(C)C2=O` : 2.53
